- Test system: A549 human lung cancer cells
- experiment: Measurement of PGE2 in IL-1β-treated A549 human lung cancer cells
- Format: cell-based
- test.context: PGE2 production, A549 cell, IL-1β 1 ng/mL, 48 hours
Could you mark each record True if its IC50 falls strictly under 9 nM, and False if it equals or exceeds it?

Ask: Please indicate whether the reported IC50 of "CC(C)C(=O)NCc1ccc(Cl)c(C(=O)Nc2ccc3c(c2)cc(C(=O)NCc2ccc(Cl)c(F)c2)n3CC(F)(F)F)c1" is strictly below 9 nM.
Reply: False

Ask: Report whether reported IC50 is lower than 9 nM (strictly) for "CC(C)C(=O)NCc1ccc(Cl)c(C(=O)Nc2ccc3c(c2)cc(C(=O)N2CCN(c4ncccn4)CC2)n3C)c1"
Reply: False

Ask: Threshold test, IC50 < 9 nM: "CC(C)C(=O)NCc1ccc(Cl)c(C(=O)Nc2ccc3c(c2)cc(C(=O)N[C@@H](C)c2ccc4ccccc4c2)n3CC(F)(F)F)c1"
Reply: True

Ask: Criterion: IC50 strictly below 9 nM. Is it met by "CC(C)C(=O)NCc1ccc(Cl)c(C(=O)Nc2ccc3c(c2)cc(C(=O)Nc2cccc(-c4ccc(C(F)(F)F)cc4)c2)n3C)c1" ?
Reply: True

Ask: Input "CC(C)C(=O)NCc1ccc(Cl)c(C(=O)Nc2ccc3c(c2)cc(C(=O)N[C@H](C)c2ccc(C(F)(F)F)cc2)n3C)c1" ; condition: IC50 strictly below 9 nM. Does it hold?
Reply: True

----------
- System: A549 human lung cancer cells
- experiment: Measurement of PGE2 in IL-1β-treated A549 human lung cancer cells
- Assay type: cell-based
- test.context: PGE2 production, A549 cell, IL-1β 1 ng/mL, 48 hours
The label is fulfilled for IC50 below 6 nM and not fulfilled for IC50 equal to or exceeding 6 nM.

Ask: Could you please tell me whether IC50 recorded for "CC(C)C(=O)NCc1ccc(Cl)c(C(=O)Nc2ccc3c(c2)cc(C(=O)NCc2ccc(F)cc2)n3CC(F)(F)F)c1" is less than 6 nM?
Reply: not fulfilled

Ask: Say whether its IC50 is strictly beneath 6 nM. Entry: "CC(C)C(=O)NCc1ccc(Cl)c(C(=O)Nc2ccc3c(c2)cc(C(=O)NCc2cccc(C(F)(F)F)c2)n3CC(F)(F)F)c1"
Reply: not fulfilled

Ask: Hello, I'm reviewing records and need to know if IC50 of "CC(C)C(=O)NCc1ccc(Cl)c(C(=O)Nc2ccc3c(c2)cc(C(=O)NCc2ccccc2C(F)(F)F)n3C)c1" is below 6 nM. Could you check?
Reply: not fulfilled

Ask: Determine whether this compound shows IC50 lower than 6 nM (ties excluded): "CC(C)C(=O)NCc1ccc(Cl)c(C(=O)Nc2ccc3c(c2)cc(C(=O)NCc2cc(F)cc(C(F)(F)F)c2)n3CC(F)(F)F)c1"
Reply: not fulfilled

Ask: Is it true that IC50 reported for "CC(C)C(=O)NCc1ccc(Cl)c(C(=O)Nc2ccc3c(c2)cc(C(=O)Nc2ccc(C(F)(F)F)cc2)n3C)c1" is less than 6 nM?
Reply: fulfilled

----------
Would you kindly list IC50 for each of these compounds?
- Tested on: A549 human lung cancer cells
- experiment: Measurement of PGE2 in IL-1β-treated A549 human lung cancer cells
- Type: cell-based
- test.context: PGE2 production, A549 cell, IL-1β 1 ng/mL, 48 hours

Ask: Could you please provide reported IC50 for "CC(C)C(=O)NCc1ccc(Cl)c(C(=O)Nc2ccc3c(c2)cc(C(=O)NCc2ccc(Cl)cc2)n3C)c1" ? Thanks!
Reply: 0.00975 µM

Ask: State its IC50: "CC(C)C(=O)NCc1ccc(Cl)c(C(=O)Nc2ccc3c(c2)cc(C(=O)NCc2ccc(C(C)(C)C)cc2)n3CC(F)(F)F)c1"
Reply: 0.0275 µM

Ask: Consider the compound "Cc1cc(Cl)ccc1NC(=O)c1cc2cc(NC(=O)c3cc(CNC(=O)C(C)C)ccc3Cl)ccc2n1C" . State its measured IC50.
Reply: 0.0274 µM

Ask: For the compound "CC(C)C(=O)NCc1ccc(Cl)c(C(=O)Nc2ccc3c(c2)cc(C(=O)NCc2ccccc2C(F)(F)F)n3CC(F)(F)F)c1" , report IC50.
Reply: 0.0148 µM

----------
- Test system: A549 human lung cancer cells
- experiment: Measurement of PGE2 in IL-1β-treated A549 human lung cancer cells
- Assay type: cell-based
- test.context: PGE2 production, A549 cell, IL-1β 1 ng/mL, 48 hours
pIC50: −log10 of the molar value.
# if value of pIC50 reaches 8, tag label 1; if it stays below, tag label 0

Ask: Does the compound CC(C)C(=O)NCc1ccc(Cl)c(-c2nc3cc(-c4ccc(C(F)(F)F)cc4)ncc3c(=O)[nH]2)c1 [GRC27864, reference compound] have recorded pIC50 that is 8 or more?
Reply: label 1

Ask: Hello, I need to know if "CC(C)C(=O)NCc1ccc(Cl)c(C(=O)Nc2ccc3c(c2)cc(C(=O)Nc2cccc(F)c2)n3C)c1" has measured pIC50 not below 8. Thanks!
Reply: label 0

Ask: Quick check, pIC50 >= 8? "CC(C)C(=O)NCc1ccc(Cl)c(C(=O)Nc2ccc3c(c2)cc(C(=O)Nc2ccc(C(F)(F)F)nc2)n3C)c1"
Reply: label 0

Ask: Hi team, for "CC(C)C(=O)NCc1ccc(Cl)c(C(=O)Nc2ccc3c(c2)cc(C(=O)NCc2ccc(F)c(Cl)c2)n3C)c1" , is the recorded pIC50 at or above 8?
Reply: label 0

Ask: Exam item: decide whether the reported pIC50 for CC(C)C(=O)NCc1ccc(Cl)c(C(=O)Nc2ccc3c(c2)cc(C(=O)NC(C)c2ccc(C(F)(F)F)cc2)n3C)c1 (stereo not shown) is at least 8.
Reply: label 1

Ask: pIC50 >= 8 for "CC(C)C(=O)NCc1ccc(Cl)c(C(=O)Nc2ccc3c(c2)cc(C(=O)N[C@@H](C)c2ccc(C(F)(F)F)cc2)n3C)c1" ?
Reply: label 0

Ask: Is the recorded value of pIC50 equal to or greater than 8 for this compound? "CC(C)C(=O)NCc1ccc(Cl)c(C(=O)Nc2ccc3c(c2)cc(C(=O)N[C@@H](C)c2ccc([N+](=O)[O-])cc2)n3CC(F)(F)F)c1"
Reply: label 0

Ask: Kindly determine if pIC50 recorded for "CC(C)C(=O)NCc1ccc(Cl)c(C(=O)Nc2ccc3c(c2)cc(C(=O)Nc2cccc(Cl)c2)n3C)c1" is above or exactly 8.
Reply: label 0

Ask: Hi team, for "CC(C)C(=O)NCc1ccc(Cl)c(C(=O)Nc2ccc3c(c2)cc(C(=O)Nc2cc(F)cc(C(F)(F)F)c2)n3C)c1" , is the recorded pIC50 at or above 8?
Reply: label 0

Ask: Determine whether this compound has pIC50 no lower than 8: "CC(C)C(=O)NCc1ccc(Cl)c(C(=O)Nc2ccc3c(c2)cc(C(=O)Nc2ccc(Br)cc2)n3C)c1"
Reply: label 0

Ask: For this compound, is measured pIC50 8 or higher? "CC(C)C(=O)NCc1ccc(Cl)c(C(=O)Nc2ccc3c(c2)cc(C(=O)Nc2cc(-c4ccc(C(F)(F)F)cc4)n[nH]2)n3C)c1"
Reply: label 0

Ask: Given the entry "CC(C)C(=O)NCc1ccc(Cl)c(CNc2ccc3c(c2)cc(C(=O)Nc2ccc(OC(F)(F)F)cc2)n3C)c1" , answer whether its pIC50 meets or surpasses 8.
Reply: label 0

----------
- Test system: A549 human lung cancer cells
- experiment: Measurement of PGE2 in IL-1β-treated A549 human lung cancer cells
- Format: cell-based
- test.context: PGE2 production, A549 cell, IL-1β 1 ng/mL, 48 hours
What IC50 was measured for each of the following?
# output: numeric value plus its unit

Ask: For the compound Cc1c(-c2ccc(C(F)(F)F)cc2)n[nH]c1NC(=O)c1cc2cc(NC(=O)c3cc(CNC(=O)C(C)C)ccc3Cl)ccc2n1C [Compound 20] , report IC50.
Reply: 6.87 nM

Ask: Tell me IC50 reported for CC(C)C(=O)NCc1ccc(Cl)c(C(=O)Nc2ccc3c(c2)cc(C(=O)NCc2ccc(C(C)(C)C)cc2)n3C)c1 [Compound 33]
Reply: 9.59 nM

Ask: # return recorded IC50 for entry CC(C)C(=O)NCc1ccc(Cl)c(C(=O)Nc2ccc3c(c2)cc(C(=O)NCc2ccc(C(F)(F)F)cc2)n3CC(F)(F)F)c1 [Compound 64]
Reply: 9.38 nM

Ask: Complete the entry with IC50 for CC(C)C(=O)NCc1ccc(Cl)c(C(=O)Nc2ccc3c(c2)cc(C(=O)Nc2ccc(OC(F)(F)F)cc2)n3C)c1 [Compound 9]
Reply: 7.16 nM

Ask: For the compound CC(C)C(=O)NCc1ccc(Cl)c(C(=O)Nc2ccc3c(c2)cc(C(=O)NCc2ccc(OC(F)(F)F)cc2)n3CC(F)(F)F)c1 [Compound 72] , give its measured IC50 value.
Reply: 9.38 nM

Ask: State its IC50: CC(C)C(=O)NCc1ccc(Cl)c(C(=O)Nc2ccc3c(c2)cc(C(=O)NCc2ccc(F)cc2)n3C)c1 [Compound 32]
Reply: 9.62 nM

Ask: Fill in reported IC50 for this entry: CC(C)C(=O)NCc1ccc(Cl)c(C(=O)Nc2ccc3c(c2)cc(C(=O)NCc2ccc(C(F)(F)F)cc2)n3C)c1 [Compound 34]
Reply: 7.9 nM
